The measured values listed here are drawn from patent US10251889B2.

- Target: Jak2 (human Jak2 kinase domain, amino acids 808-1132) (Homo sapiens (Human), UniProt O60674)
- Sequence (O60674 808-1132): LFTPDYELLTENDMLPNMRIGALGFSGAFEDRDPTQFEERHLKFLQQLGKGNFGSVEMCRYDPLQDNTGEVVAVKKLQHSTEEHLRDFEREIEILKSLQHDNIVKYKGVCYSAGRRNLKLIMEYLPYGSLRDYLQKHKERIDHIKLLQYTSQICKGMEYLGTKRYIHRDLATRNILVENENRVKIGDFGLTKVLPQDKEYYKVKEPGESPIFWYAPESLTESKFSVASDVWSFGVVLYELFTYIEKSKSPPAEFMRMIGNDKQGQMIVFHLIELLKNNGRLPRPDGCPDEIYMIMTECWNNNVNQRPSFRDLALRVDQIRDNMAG
- Assay text: Jak2 inhibition assay (Omnia kinase assay)
- Type: biochemical
- Particulars: read-out: Jak2 Enzyme (% inhibition at 1000 nM), Table 1; 1000 nM test compound
Recorded endpoint: inhibition at 1 µM (%)
Respond numerically; units are % and should not be typed.

Notebook: `O=C(NC1CC1)c1cnn2ccc(N3CCC[C@@H]3c3cc(F)ccc3F)nc12` , inhibition at 1 µM read as 41.4

Notebook: `CC(C)(C)NC(=O)c1cnn2ccc(N3CCC[C@@H]3c3cccc(F)c3)nc12` , inhibition at 1 µM read as 22.2

Notebook: `Cn1cc(CNC(=O)c2cnn3ccc(N4CCC[C@@H]4c4cc(F)ccc4F)nc23)cn1` , inhibition at 1 µM read as 9.8

Notebook: `NC(=O)c1cnn2ccc(N3CCC[C@@H]3c3cc(F)ccc3C(F)(F)F)nc12` , inhibition at 1 µM read as 60.3

* * *

- Target: Jak3 (GST-tagged human Jak3 kinase domain, amino acids 781-1124) (Homo sapiens (Human))
- Sequence (P52333 781-1124): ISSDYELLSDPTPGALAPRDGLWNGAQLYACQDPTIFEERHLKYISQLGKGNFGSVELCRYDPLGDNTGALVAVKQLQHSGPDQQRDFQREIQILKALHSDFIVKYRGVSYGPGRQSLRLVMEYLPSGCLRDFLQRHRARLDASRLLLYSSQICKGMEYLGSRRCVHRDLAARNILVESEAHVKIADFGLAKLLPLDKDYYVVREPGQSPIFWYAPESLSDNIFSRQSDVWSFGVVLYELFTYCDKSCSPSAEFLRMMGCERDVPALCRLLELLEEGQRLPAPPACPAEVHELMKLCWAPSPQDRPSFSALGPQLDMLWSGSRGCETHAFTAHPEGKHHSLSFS
- Assay text: Jak3 inhibition assay (Omnia kinase assay)
- Assay type: biochemical
- Particulars: read-out: Jak3 (% inhibition at 1000 nM); Table 2; 1000 nM test compound
- Method: The assays described in Examples C, D, E and F for the determination of JAK1, JAK2, JAK3 and Tyk2 kinase activity, respectively, utilized the Omnia® Kinase fluorescence peptide substrate-based technology (Invitrogen). […] The reactions were therefore read at excitation 360 nm and emission was measured at 485 nm every 50 seconds for 45 minutes using a PerkinElmer EnVision Multilabel Plate Reader. […]
Recorded endpoint: inhibition at 1 µM

Notebook: `CC(C)NC(=O)c1cnn2ccc(N3CCC[C@@H]3c3cncc(F)c3)nc12` , inhibition at 1 µM read as 10.6%

Notebook: `Cc1ncc(F)cc1[C@H]1CCCN1c1ccn2ncc(C(=O)NC3(C)CC3)c2n1` , inhibition at 1 µM read as 7.2%

Notebook: `CC1(NC(=O)c2cnn3ccc(N4CCC[C@@H]4c4cncc(F)c4)nc23)CC1` , inhibition at 1 µM read as 8.3%

Notebook: `C[C@H](NC(=O)c1cnn2ccc(N3CCC[C@@H]3c3cncc(F)c3)nc12)C1CC1` , inhibition at 1 µM read as 7.2%

Notebook: `O=C(NC1CC1)c1cnn2ccc(N3CCC[C@@H]3c3cncc(F)c3)nc12` , inhibition at 1 µM read as 0.8%

Notebook: `C[C@@H](NC(=O)c1cnn2ccc(N3CCC[C@@H]3c3cncc(F)c3)nc12)C1CC1` , inhibition at 1 µM read as 8.9%

Notebook: `O=C(NCC1CC1)c1cnn2ccc(N3CCC[C@@H]3c3cncc(F)c3)nc12` , inhibition at 1 µM read as 9.7%

Notebook: `CNC(=O)c1cnn2ccc(N3CCC[C@@H]3c3cncc(F)c3)nc12` , inhibition at 1 µM read as 8.5%

* * *

Can you tell me inhibition at 1 µM for the items I'm about to list?
- Target: Jak2 (human Jak2 kinase domain, amino acids 808-1132) (Homo sapiens (Human))
- Assay text: Jak2 inhibition assay (Omnia kinase assay)
- Format: biochemical
- Particulars: read-out: Jak2 Enzyme (% inhibition at 1000 nM), Table 1; 1000 nM test compound
Respond numerically; units are % and should not be typed.

Notebook: CNC(=O)c1cnn2ccc(N3C[C@@H](O)C[C@@H]3c3cccc(F)c3)nc12 [Example 218] , inhibition at 1 µM read as 24.6

Notebook: O=C(NC1CC1)c1cnn2ccc(N3CCC[C@@H]3c3cc(F)cc(OCC(O)CO)c3)nc12 (stereo partly shown) [Example 208] , inhibition at 1 µM read as 21.2

Notebook: COc1ccc(F)cc1[C@H]1CCCN1c1ccn2ncc(C(=O)NC3CC3)c2n1 [Example 48] , inhibition at 1 µM read as 72.7

Notebook: CC(C)(N)CNC(=O)c1cnn2ccc(N3CCC[C@@H]3c3cc(F)ccc3F)nc12 [Example 58] , inhibition at 1 µM read as 4.7
